# Test target: T1, human IL-17A (construct not stated) (human, UniProt Q16552 24-155, limits assumed)
# T1 construct: also called huIL-17A; human IL-17A biotin
# T1 sequence: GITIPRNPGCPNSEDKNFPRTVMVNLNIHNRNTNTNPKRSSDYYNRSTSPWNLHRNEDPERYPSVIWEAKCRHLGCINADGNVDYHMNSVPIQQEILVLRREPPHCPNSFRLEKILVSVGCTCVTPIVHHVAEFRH
# Measurement description: ELISA on coated huIL-17A, crude Fab extract, overnight with 200 nM XAB1 Fab as competitor
Property: Competition ELISA (normalized to XAB1 Fab)

{"columns": ["Binder", "Observed value"],
 "data": [
  ["MB450 (Fab, V domains shown, heavy chain C-terminal Flag tag) VH: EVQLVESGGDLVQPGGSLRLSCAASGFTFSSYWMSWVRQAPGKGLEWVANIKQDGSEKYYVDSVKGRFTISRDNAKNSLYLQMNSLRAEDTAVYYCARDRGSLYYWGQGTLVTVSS VL: AIQLTQSPSSLSASVGDRVTITCRPSQGIMWWLAWYQQKPGKAPKLLIYDASSLENGVPSRFSGSGSGTDFTLTISSLQPEDFATYYCQQFNSYPLTFGGGTKVEIK", "53.3 ratio to XAB1 Fab"],
  ["MB458 (Fab, V domains shown, heavy chain C-terminal Flag tag) VH: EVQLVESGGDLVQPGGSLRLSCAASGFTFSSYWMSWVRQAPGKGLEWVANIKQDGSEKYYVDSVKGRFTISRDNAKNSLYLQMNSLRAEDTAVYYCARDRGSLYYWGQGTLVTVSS VL: AIQLTQSPSSLSASVGDRVTITCRPSQGIWYQLAWYQQKPGKAPKLLIYDASSLENGVPSRFSGSGSGTDFTLTISSLQPEDFATYYCQQFNSYPLTFGGGTKVEIK", "42.1 ratio to XAB1 Fab"],
  ["MB432 (Fab, V domains shown, 32 stays A); heavy chain C-terminal Flag tag) VH: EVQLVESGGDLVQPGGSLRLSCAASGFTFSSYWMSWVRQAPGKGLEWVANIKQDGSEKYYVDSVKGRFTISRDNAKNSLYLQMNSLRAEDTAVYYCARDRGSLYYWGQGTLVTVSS VL: AIQLTQSPSSLSASVGDRVTITCRPSQGILFALAWYQQKPGKAPKLLIYDASSLENGVPSRFSGSGSGTDFTLTISSLQPEDFATYYCQQFNSYPLTFGGGTKVEIK", "37.3 ratio to XAB1 Fab"],
  ["MB447 (Fab, V domains shown, heavy chain C-terminal Flag tag) VH: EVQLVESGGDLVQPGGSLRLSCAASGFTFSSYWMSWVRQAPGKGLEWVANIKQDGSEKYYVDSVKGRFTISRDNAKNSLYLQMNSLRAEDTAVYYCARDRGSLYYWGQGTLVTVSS VL: AIQLTQSPSSLSASVGDRVTITCRPSQGIFWWLAWYQQKPGKAPKLLIYDASSLENGVPSRFSGSGSGTDFTLTISSLQPEDFATYYCQQFNSYPLTFGGGTKVEIK", "57 ratio to XAB1 Fab"],
  ["MB454 (Fab, V domains shown, 32 stays A); heavy chain C-terminal Flag tag) VH: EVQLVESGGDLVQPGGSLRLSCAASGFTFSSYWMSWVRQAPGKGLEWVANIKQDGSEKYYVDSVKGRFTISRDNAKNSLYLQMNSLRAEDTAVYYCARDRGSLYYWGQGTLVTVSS VL: AIQLTQSPSSLSASVGDRVTITCRPSQGILWALAWYQQKPGKAPKLLIYDASSLENGVPSRFSGSGSGTDFTLTISSLQPEDFATYYCQQFNSYPLTFGGGTKVEIK", "36.6 ratio to XAB1 Fab"]
]}

Batch of 5 binders: report Competition ELISA (normalized to XAB1 Fab) for each.
1. MB433 (Fab, V domains shown, heavy chain C-terminal Flag tag) VH: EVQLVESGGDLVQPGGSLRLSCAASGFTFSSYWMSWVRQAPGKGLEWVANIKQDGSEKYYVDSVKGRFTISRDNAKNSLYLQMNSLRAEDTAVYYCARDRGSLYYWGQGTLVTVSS VL: AIQLTQSPSSLSASVGDRVTITCRPSQGIYWGLAWYQQKPGKAPKLLIYDASSLENGVPSRFSGSGSGTDFTLTISSLQPEDFATYYCQQFNSYPLTFGGGTKVEIK
2. MB444 (Fab, V domains shown, heavy chain C-terminal Flag tag) VH: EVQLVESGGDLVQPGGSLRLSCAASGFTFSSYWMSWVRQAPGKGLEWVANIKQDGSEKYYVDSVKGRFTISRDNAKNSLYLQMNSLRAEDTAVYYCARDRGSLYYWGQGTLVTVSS VL: AIQLTQSPSSLSASVGDRVTITCRPSQGILWELAWYQQKPGKAPKLLIYDASSLENGVPSRFSGSGSGTDFTLTISSLQPEDFATYYCQQFNSYPLTFGGGTKVEIK
3. MB457 (Fab, V domains shown, 30 stays I); heavy chain C-terminal Flag tag) VH: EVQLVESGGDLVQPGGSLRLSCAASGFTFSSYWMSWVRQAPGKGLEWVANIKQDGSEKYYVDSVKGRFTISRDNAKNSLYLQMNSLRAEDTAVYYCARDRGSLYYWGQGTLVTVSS VL: AIQLTQSPSSLSASVGDRVTITCRPSQGIIWSLAWYQQKPGKAPKLLIYDASSLENGVPSRFSGSGSGTDFTLTISSLQPEDFATYYCQQFNSYPLTFGGGTKVEIK
4. MB463 (Fab, V domains shown, heavy chain C-terminal Flag tag) VH: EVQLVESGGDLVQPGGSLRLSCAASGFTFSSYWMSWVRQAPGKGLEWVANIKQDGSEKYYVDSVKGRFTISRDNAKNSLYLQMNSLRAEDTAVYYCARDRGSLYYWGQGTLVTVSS VL: AIQLTQSPSSLSASVGDRVTITCRPSQGIYFELAWYQQKPGKAPKLLIYDASSLENGVPSRFSGSGSGTDFTLTISSLQPEDFATYYCQQFNSYPLTFGGGTKVEIK
5. MB461 (Fab, V domains shown, heavy chain C-terminal Flag tag) VH: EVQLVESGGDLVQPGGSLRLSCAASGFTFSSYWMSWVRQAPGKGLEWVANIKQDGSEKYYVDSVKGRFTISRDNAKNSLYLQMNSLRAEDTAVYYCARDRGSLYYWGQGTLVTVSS VL: AIQLTQSPSSLSASVGDRVTITCRPSQGIYWTLAWYQQKPGKAPKLLIYDASSLENGVPSRFSGSGSGTDFTLTISSLQPEDFATYYCQQFNSYPLTFGGGTKVEIK

[reply]
1. 29.3 ratio to XAB1 Fab
2. 52.4 ratio to XAB1 Fab
3. 41 ratio to XAB1 Fab
4. 31.6 ratio to XAB1 Fab
5. 62.8 ratio to XAB1 Fab
